assayedTarget: T1, LNX2_3, Q8N448
T1 sequence (Q8N448 463-564, limits assumed, looked up): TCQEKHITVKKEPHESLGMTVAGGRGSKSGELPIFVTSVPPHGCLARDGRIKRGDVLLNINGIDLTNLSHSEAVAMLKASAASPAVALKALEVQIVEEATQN
testProtocol: holdup assay
Parameters: key: below the threshold = too weak to quantify, mostly under pKd 3.1 to 4
testConditions: plain residues with an end cap or a label only (N-terminal biotin on a linker: ttds)

{"binder": "DPRNTQTSQI [ABRAXAS2, Q15018]", "pKd": "below the threshold"}
{"binder": "GGPKEEESPV [SLC16A1, P53985]", "pKd": "below the threshold"}
{"binder": "SEKHFRETEV [HTLV1-TAX1, P03409]", "pKd": "below the threshold"}
